The measured values listed here are drawn from paper PMC8809517.

# tgt: T1, GFP-9S library array, motif 4 ND N98P;D124T (synthetic construct, N98P;D124T)
# T1 chain: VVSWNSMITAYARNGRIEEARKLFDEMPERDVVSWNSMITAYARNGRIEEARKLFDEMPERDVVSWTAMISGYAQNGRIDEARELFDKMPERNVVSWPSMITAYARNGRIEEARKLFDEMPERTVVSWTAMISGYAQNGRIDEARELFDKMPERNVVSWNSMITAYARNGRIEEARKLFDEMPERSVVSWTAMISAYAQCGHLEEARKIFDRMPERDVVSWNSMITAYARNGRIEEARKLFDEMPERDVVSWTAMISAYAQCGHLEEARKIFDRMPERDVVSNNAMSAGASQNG
# experimentalProtocol: high-throughput RNA pulldown from lysate on Ni-NTA beads; HRP: 50 mM Tris pH 8, 150 mM NaCl, 1 mM beta-mercaptoethanol, 50 ug/ml BSA, 3 ug/ml yeast RNA, 0.5% heparin; ITC and FP: Tris pH 8, 200 mM KCl, 5% glycerol; MST: 50 mM Tris pH 8, 200 mM NaCl, 1 mM DTT, BSA, heparin, 0.05% Tween 20
# conditionsUsed: tags: N-terminal His-eGFP; label: 5' IRDye 800CW
measuredAttribute: pKd
Note on units: pKd is unitless, being -log10 of a concentration expressed in mol/L.

Item AUUAAACGUGA (ssRNA) [IR-rpoA-A] has what recorded pKd?
6.39

From here, focus on the item given below.
Would you mind telling me what pKd value was observed for AUUAUACGUGA (ssRNA) [IR-rpoA-U] ?
6.75
